Molecular target: T1, Rb^P S671F (human, UniProt P06400 380-788, S671F)
T1 construct: also called variant 53
T1 sequence (looked up): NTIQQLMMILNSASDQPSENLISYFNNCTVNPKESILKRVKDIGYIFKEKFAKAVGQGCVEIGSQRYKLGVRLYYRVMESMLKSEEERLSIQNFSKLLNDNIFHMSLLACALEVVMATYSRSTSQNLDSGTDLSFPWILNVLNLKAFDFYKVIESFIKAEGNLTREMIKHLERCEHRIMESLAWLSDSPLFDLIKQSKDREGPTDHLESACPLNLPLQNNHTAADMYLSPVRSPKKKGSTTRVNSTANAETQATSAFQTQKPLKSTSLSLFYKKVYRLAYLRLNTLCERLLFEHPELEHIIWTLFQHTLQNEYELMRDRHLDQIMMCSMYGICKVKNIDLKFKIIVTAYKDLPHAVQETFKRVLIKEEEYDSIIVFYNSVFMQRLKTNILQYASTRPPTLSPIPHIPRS
Assay: fluorescence polarisation; 37 °C, after the 25 °C reading ramped over 7 min to 37 °C and 2 min incubation; unlabeled Rb^P against 1.5 nM TMR-E2F1^TD or 7.5 nM TMR-E7^LxCxE; 25 mM Tris pH 8.0, 200 mM NaCl, 1 mM DTT, 0.1% Tween-20; apparent Kd
Settings: both partners purified
No end group written: not given here. TMR = tetramethyl rhodamine dye
Record form. Attribute: pKd. Fill in for each entry.
API: returns pKd as number; meaning -log10 of concentration in mol/L.

QUERY: Look up pKd: DLYCYEQLN (also: TMR label, position not given here, source: synthetic peptide, bought: GenScript) [TMR-E7^LxCxE, LxCxE peptide of the E7 oncoprotein from HPV]
RESULT: 7.72

QUERY: # repeat for {TMR}-GEGIRDLFDCDFGDLTPLD (also called E2F^TD; source: synthetic peptide, bought: GenScript) [TMR-E2F1^TD, peptide of the E2F1 transactivation domain]
RESULT: 7.34
